System: Wolbachia pipientis
Experiment: Anti-Wolbachia Cell-Based Screen
Type: functional
Parameters: scale not given: in the data most compounds retested in dose-response had high values
Conditions: 5 µM
Hit rate of the full screen: of about 48,000 compounds, about 13,000 (27%) showed an effect of 50% or more. The list shows a part of the results.
Measured parameter: Percent Effect (%)

{"Molecule": "CCN(C)C[C@@H]1CN(S(=O)(=O)c2ccc(C#N)cc2)C[C@@H]1CO", "Measured parameter": "Percent Effect", "Observed result": -9.397}
{"Molecule": "CCOCC(=O)Nc1cc(C)cnc1OC", "Measured parameter": "Percent Effect", "Observed result": -15.44}
{"Molecule": "N#Cc1cnc2ccccc2c1N1CCC(C(=O)O)CC1", "Measured parameter": "Percent Effect", "Observed result": 149.3}
{"Molecule": "CN(Cc1nc(C2CC2)no1)C(=O)c1cccc(CC2CCNCC2)c1", "Measured parameter": "Percent Effect", "Observed result": -25.8}
{"Molecule": "Cn1c(CC2CCS(=O)(=O)C2)nnc1SCCOc1cccc(Cl)c1 (configuration not stated)", "Measured parameter": "Percent Effect", "Observed result": -0.5002}
{"Molecule": "CC(NS(=O)(=O)CC1(C#N)CCCC1)c1cccc(-n2cccn2)c1 (configuration not stated)", "Measured parameter": "Percent Effect", "Observed result": -9.973}
{"Molecule": "CC(C)(C)OC(=O)NC(C)(C)c1noc(CSc2nncs2)n1", "Measured parameter": "Percent Effect", "Observed result": 7.03}

###

# Percent Effect listing for each entry below
System: Wolbachia pipientis
Test: Anti-Wolbachia Cell-Based Screen
Type: functional
Set-up: scale not given: in the data most compounds retested in dose-response had high values
Conditions: 5 µM
The campaign covered roughly 48,000 compounds. About 13,000 (27%) showed an effect of 50% or more. The list shows a part of the results.
Measured parameter: Percent Effect (%)

{"Compound": "O=C(NCCc1nnc[nH]1)Nc1cccc(SC(F)F)c1", "Uom": "%", "Observed result": -17.31}
{"Compound": "Cc1ccc(C(=O)N2CCCCC2c2[nH]ncc2S(C)(=O)=O)cn1 (centres undefined)", "Uom": "%", "Observed result": 107.9}
{"Compound": "Cc1cccc(C(=O)N2CCCCC2c2ccc(CN(C)C)cc2)c1 (centres undefined)", "Uom": "%", "Observed result": 14.25}
{"Compound": "O=C(CCO)N[C@H]1CN(CC2CCC2)C[C@@H]1c1ccccc1", "Uom": "%", "Observed result": 4.649}
{"Compound": "Cc1occc1C(=O)N1CCC2(CC1)CC(c1cccnc1)C(=O)N2C (centres undefined)", "Uom": "%", "Observed result": -9.568}
{"Compound": "CCCOCCN1CCC2(CC1)CC(c1ccccc1)C(=O)N2C (centres undefined)", "Uom": "%", "Observed result": 4.457}
{"Compound": "Cn1cccc1C(=O)N1CCCCC1c1[nH]ncc1S(C)(=O)=O (centres undefined)", "Uom": "%", "Observed result": 102.3}
{"Compound": "COc1cc2c(cc1OC)S(=O)(=O)N(Cc1ccccc1)C2=O", "Uom": "%", "Observed result": -12.48}
{"Compound": "CC1CCCCN1C(=O)c1ccc(Br)s1 (centres undefined)", "Uom": "%", "Observed result": 10.55}
